// provenance: patent US8168651B2

Reported IC50 by item:
molecular target: recombinant human PIM1 (Homo sapiens (Human), UniProt P11309); experiment: PIM-1 kinase activity in cell-free in vitro assay; assay type: biochemical; settings: cell-free
Sequence (P11309 whole entry): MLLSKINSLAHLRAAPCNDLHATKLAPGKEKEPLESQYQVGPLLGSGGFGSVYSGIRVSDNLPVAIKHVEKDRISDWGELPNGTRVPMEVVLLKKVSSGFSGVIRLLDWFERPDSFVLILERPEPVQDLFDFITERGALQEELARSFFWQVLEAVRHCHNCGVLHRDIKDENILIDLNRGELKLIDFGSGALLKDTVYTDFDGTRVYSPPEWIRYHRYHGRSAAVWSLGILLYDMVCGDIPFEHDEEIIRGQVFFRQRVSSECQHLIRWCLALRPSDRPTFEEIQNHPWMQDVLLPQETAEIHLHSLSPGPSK
READOUT: IC50 (nM)

O=C(O)c1ccc2c(c1)nc(Nc1ccccc1)c1ccsc12 :: 454
CN(C)CCNC(=O)c1cccc(Nc2nc3cc(C(=O)O)ccc3c3sccc23)c1 :: 436
O=C(O)c1ccc2c(c1)nc(Nc1ccc(F)c(Cl)c1)c1ccncc12 :: 115
CNC(=O)c1cccc(Nc2nc3cc(-c4nnn[nH]4)ccc3c3sccc23)c1 :: 329
O=C(O)c1ccc2c(c1)nc(Nc1ccc(Cl)cc1)c1ccncc12 :: 284
FC(F)(F)c1cccc(Nc2nc3cc(-c4nnn[nH]4)ccc3c3sccc23)c1 :: 205
Clc1cccc(Nc2nc3cc(-c4nnn[nH]4)ccc3c3sccc23)c1 :: 345
CN(C)CCCNc1nc2cc(-c3nnn[nH]3)ccc2c2sccc12 :: 511
Brc1cccc(Nc2nc3cc(-c4nnn[nH]4)ccc3c3sccc23)c1 :: 220
O=C(O)c1ccc2c(c1)nc(Nc1cccc(F)c1)c1ccsc12 :: 136
O=C(O)c1ccc2c(c1)nc(Nc1ccc(F)c(Cl)c1)c1ncncc12 :: 368

---

Reported inhibition at 0.5 µM by item:
biological target: recombinant human PIM1 (Homo sapiens (Human), UniProt P11309); experiment: PIM-1 kinase activity in cell-free in vitro assay; type: biochemical; settings: 500 nM compound, cell-free assay; read-out: PIM-1: % inh 500 nM
READOUT: inhibition at 0.5 µM

O=C(O)c1ccc2c(c1)nc(Nc1ccc(Oc3ccccc3)cc1)c1ccncc12 :: 57.2%
CN1CCN(c2nc3cc(-c4nnn[nH]4)ccc3c3sccc23)CC1 :: 81.3%
CONC(=O)c1ccc2c(c1)nc(Nc1cccc(Cl)c1)c1ccncc12 :: -15.6%
O=C(O)c1ccc2c(c1)nc(Nc1cccc(OC(F)(F)F)c1)c1ccncc12 :: 87.3%
O=C(O)c1ccc2c(c1)nc(Nc1ccccc1OC(F)(F)F)c1ccncc12 :: 32.5%
CN(C)C1CCN(c2nc3cc(C#N)ccc3c3sccc23)C1 (stereo not shown) :: -16.5%
O=C(O)c1ccc2c(c1)nc(Nc1cccc(C(F)(F)F)c1)c1nc(NC3CC3)ncc12 [drawing 1596] :: -17.3%
CN(c1ccccc1)c1nc2cc(C(=O)O)ccc2c2ccncc12 :: 56.8%
C#Cc1cccc(Nc2nc3cc(C(=O)O)ccc3c3cnc(NCCOCC)nc23)c1 :: 12.1%
CN(C)CCNc1nc2cc(C(=O)N(C)C)ccc2c2sccc12 :: -3.56%
Cc1nccn1CCNc1nc2cc(C#N)ccc2c2sccc12 :: 8.62%
CN(C)CCOc1nc2cc(C#N)ccc2c2sccc12 :: -43.2%
O=C(O)c1cccc2c1nc(Nc1cccc(Cl)c1)c1ccncc12 [drawing 2001] :: 20.2%
O=C(O)c1ccc2c(c1)nc(N1CCN(c3cnccn3)CC1)c1ccncc12 :: -2.36%
C#Cc1cccc(Nc2nc3cc(C(N)=O)ccc3c3cncnc23)c1 :: -38.1%
N#Cc1ccc2c(c1)nc(N1CCNCC1)c1ccsc12 :: 7.88%
O=C(O)c1ccc2c(c1)nc(NC1CC1)c1nc(NCCN3CCOCC3)ncc12 :: 41.2%
O=C(O)c1ccc2c(c1)nc(Nc1ccccc1OCc1ccccc1)c1ccncc12 :: 27.7%
CCN1CCC[C@H]1CNc1nc2cc(-c3nnn[nH]3)ccc2c2sccc12 :: 84.1%

---

molecular target: recombinant human PIM1 (Homo sapiens (Human), UniProt P11309); assay: PIM-1 kinase activity in cell-free in vitro assay; type: biochemical; conditions: 500 nM compound, cell-free assay; read-out: PIM-1: % inh 500 nM
Reported inhibition at 0.5 µM by item:
READOUT: inhibition at 0.5 µM

c1cc2c(NCC3CCCN3)nc3cc(-c4nnn[nH]4)ccc3c2s1 (centres unmarked) :: 93.4%
c1ccc(COc2nc3cc(-c4nnn[nH]4)ccc3c3sccc23)cc1 :: -6.97%
Cc1nccn1CCNc1nc2cc(C(=O)O)ccc2c2cnccc12 :: 97.1%
O=C(O)c1ccc2c(c1)nc(Nc1ccc3c(c1)OCCO3)c1ccncc12 :: 88.4%
CN(C)CCNc1nc2cc(C(=O)NC3CCCCC3)ccc2c2sccc12 :: -3.1%
COc1ccc(CCNc2nc3cc(C(=O)O)ccc3c3cnccc23)cc1OC :: 9.85%
O=C(O)c1ccc2c(c1)nc(Nc1cccc(F)c1)c1nccnc12 :: 21.9%
C#Cc1cccc(Nc2nc3cc(C(=O)N(C)C)ccc3c3cncnc23)c1 :: -27.8%
O=C(O)c1ccc2c(c1)nc(Nc1ccc(F)c(Cl)c1)c1cnccc12 :: 10.8%
N#Cc1ccc2c(c1)nc(N1CCC[C@H]1C(N)=O)c1ccsc12 :: 12.2%
CN(C)CCNc1ncc2c(n1)c(Nc1ccc(F)c(Cl)c1)nc1cc(C(=O)O)ccc12 :: 53%
O=C(O)c1ccc2c(c1)nc(Nc1ccc3c(c1)OCO3)c1ccncc12 :: 76%
COc1cc(Nc2nc3cc(C(=O)O)ccc3c3cnccc23)ccc1C :: 75.8%
CN1CCC(N(C)c2nc3cc(CN)ccc3c3sccc23)C1 (centres unmarked) :: -39.8%
O=C(O)c1ccc2c(c1)nc(NC1CC1)c1ccncc12 [drawing 1639] :: 28.1%
COC(=O)c1ccc2c(c1)nc(NCCCOC(C)C)c1ccncc12 :: 24.2%
N#Cc1ccc2c(c1)nc(Nc1cccc(F)c1)c1ccsc12 :: -4.85%
N#Cc1ccc2c(c1)nc(N1CCC(c3cccnc3)C1)c1ccsc12 (centres unmarked) :: -11.2%
NC(=O)c1ccc2c(c1)nc(Nc1cccc(C(F)(F)F)c1)c1ccncc12 :: 1.09%
O=C(NCCN1CCOCC1)c1ccc2c(c1)nc(NC1CC1)c1nc(NC3CC3)ncc12 :: 2.65%
CN1CCCC(Nc2nc3cc(-c4nnn[nH]4)ccc3c3sccc23)C1 (centres unmarked) :: 90.9%
Clc1cccc(Nc2nc3cc(-c4nnn[nH]4)ccc3c3ccsc23)c1 :: 31.9%
Nc1nc2cc(C(=O)O)ccc2c2cnc(NC3CC3)nc12 :: 0.938%
CC1(C)CC(Nc2nc3cc(C#N)ccc3c3sccc23)CC(C)(C)N1 :: -1.38%
CCOc1ccc(Nc2ncc3c(n2)c(NC2CC2)nc2cc(C(=O)O)ccc23)cc1 :: 45.9%
O=C(O)c1ccc2c(c1)nc(NCCc1ccccc1)c1nccnc12 :: -26%
CC(C)OCCCNc1nc2cc(C(=O)O)ccc2c2cnccc12 :: 60.8%
CN1CCN(c2nc3cc(C(=O)NCc4cccnc4)ccc3c3sccc23)CC1 :: -16%
O=C(O)c1ccc2c(c1)nc(Nc1cccc(Oc3ccccc3)c1)c1ccncc12 :: 44.1%
C#Cc1cccc(Nc2nc3cc(C(=O)O)ccc3c3cnc(NCCOC)nc23)c1 :: 55.5%
CON(C)c1nc2cc(C(=O)O)ccc2c2cnccc12 :: 55.7%
O=C(O)c1ccc2c(c1)nc(NC1CC1)c1nc(SCc3ccccc3Cl)ncc12 [drawing 1614] :: 7.49%

---

test system: Jurkat; assay: Cell proliferation modulatory activity, Jurkat; format: cell-based; conditions: Homo sapiens
Reported IC50 by item:
READOUT: IC50 (µM)

O=C(O)c1ccc2c(c1)nc(Nc1ccc(Cl)c(C(F)(F)F)c1)c1ccncc12 :: 3.05
O=C(O)c1ccc2c(c1)nc(Nc1cccc(C(F)(F)F)c1)c1ncncc12 :: 2.53
C#Cc1cccc(Nc2nc3cc(C(=O)O)ccc3c3cnc(NC4CC4)nc23)c1 :: 1.27
COC(=O)c1ccc2c(c1)nc(NC1CC1)c1nc(SCc3ccccc3Cl)ncc12 [drawing 1611] :: 4.67
O=C(O)c1ccc2c(c1)nc(NC1CC1)c1nc(NC(CO)c3ccccc3)ncc12 (stereo not shown) :: 27.5
O=C(O)c1ccc2c(c1)nc(Nc1cccc(OC(F)(F)F)c1)c1ccncc12 :: 7.44

---

Reported inhibition at 0.5 µM by item:
target: recombinant human PIM1 (Homo sapiens (Human), UniProt P11309); assay: PIM-1 kinase activity in cell-free in vitro assay; format: biochemical; details: 500 nM compound, cell-free assay; read-out: PIM-1: % inh 500 nM
READOUT: inhibition at 0.5 µM (%)

CN(c1ccccc1)c1nc2cc(C(=O)NC3CC3)ccc2c2cnc(NC3CC3)nc12 :: 16.1
COC(=O)c1ccc2c(c1)nc(NCCOC(C)C)c1ccncc12 :: 39.1
CC(C)C(CO)Nc1ncc2c(n1)c(NC1CC1)nc1cc(C(=O)O)ccc12 (stereo not drawn) :: -8.31

---

biological target: recombinant human PIM1 (Homo sapiens (Human)); assay: PIM-1 kinase activity in cell-free in vitro assay; format: biochemical; conditions: 500 nM compound, cell-free assay; read-out: PIM-1: % inh 500 nM
Reported inhibition at 0.5 µM by item:
READOUT: inhibition at 0.5 µM (%)

N#Cc1ccc2c(c1)nc(NCc1ccc(C(N)=O)cc1)c1ccsc12 :: -23.8
Cc1cc(Nc2nc3cc(C(=O)O)ccc3c3cnccc23)c2ccccc2n1 :: 24.9
COC(CNc1ncc2c(n1)c(Nc1ccc(F)c(Cl)c1)nc1cc(C(=O)O)ccc12)OC :: 57.6
COC(=O)c1ccc2c(c1)nc(NCCN1CCCC1)c1ccncc12 :: 17.8
